The following compounds are shown together with reported IC50 values.
biological target: wild-type HIV-1 protease (Human immunodeficiency virus type 1 group M subtype B); assay: Assay for inhibition of microbial expressed HIV protease; assay type: biochemical; details: wild-type HIV-1 protease expressed in E. coli, peptide substrate, pH 5.5; read-out: Enzyme Inhibition - IC50
assayMetric: IC50 (nM)

[[record]]
smilescode = "COC(=O)N[C@@H](Cc1ccccc1Cl)C(=O)N[C@H](CCC[C@@H](CO)N(CCC(C)C)S(=O)(=O)c1ccc2ncsc2c1)C1CC1"
targetundertest = "wild-type HIV-1 protease (Human immunodeficiency virus type 1 group M subtype B)"
unitlabel = "nM"
valuereported = 1.4

[[record]]
smilescode = "CC[C@@H](CCC[C@@H](CO)N(CCCF)S(=O)(=O)c1ccc(N)cc1)NC(=O)[C@@H](NC(=O)OC)C(c1ccccc1)c1ccccc1"
targetundertest = "wild-type HIV-1 protease (Human immunodeficiency virus type 1 group M subtype B)"
unitlabel = "nM"
valuereported = 0.268

[[record]]
smilescode = "CC[C@@H](CCC[C@@H](CO)N(CC(C)C)S(=O)(=O)c1ccc(CO)cc1)NC(=O)[C@@H](NC(=O)OC)C(c1ccccc1)c1ccccc1"
targetundertest = "wild-type HIV-1 protease (Human immunodeficiency virus type 1 group M subtype B)"
unitlabel = "nM"
valuereported = 0.034


###

system: acute HIV infection of T-lymphoid cells; assay: Assay for inhibition of HIV replication (spread assay); format: cell-based, HIV-1; conditions: Human immunodeficiency virus 1, T-lymphoid; read-out: Spread - IC95
Class key for IC95 values: low group: < 20 nM; middle group: ≥ 20 nM and < 40 nM; high group: ≥ 40 nM

[[record]]
compound = "CC[C@@H](CCC[C@@H](CO)N(CC(C)C)S(=O)(=O)c1ccc(CO)cc1)NC(=O)[C@@H](NC(=O)OC)C(c1ccccc1)c1ccccc1"
targetundertest = "acute HIV infection of T-lymphoid cells"
group = "low group"

[[record]]
compound = "CC[C@@H](CCC[C@@H](CO)N(CC(C)C)S(=O)(=O)c1ccc(N)cc1)NC(=O)[C@@H](NC(=O)OC)C(c1ccccc1)c1ccccc1"
targetundertest = "acute HIV infection of T-lymphoid cells"
group = "low group"

[[record]]
compound = "COC(=O)N[C@H](C(=O)N[C@@H](C)CCC[C@@H](CO)N(CCC(C)C)S(=O)(=O)c1ccc(N)c(F)c1)C(c1ccccc1)c1ccccc1"
targetundertest = "acute HIV infection of T-lymphoid cells"
group = "low group"

[[record]]
compound = "CC(C)N([C@H](CO)CCCC(C)(C)NC(=O)[C@@H](N)C(c1ccccc1)c1ccccc1)S(=O)(=O)c1ccc(N)cc1"
targetundertest = "acute HIV infection of T-lymphoid cells"
group = "middle group"

[[record]]
compound = "CC[C@@H](CCC[C@@H](CO)N(C(C)C)S(=O)(=O)c1ccc(CO)cc1)NC(=O)[C@@H](N)C(c1ccccc1)c1ccccc1"
targetundertest = "acute HIV infection of T-lymphoid cells"
group = "middle group"

[[record]]
compound = "COC(=O)N[C@H](C(=O)N[C@H](CCC[C@@H](CO)N(C)S(=O)(=O)c1ccc(N)cc1)C(F)(F)F)C(c1ccccc1)c1ccccc1"
targetundertest = "acute HIV infection of T-lymphoid cells"
group = "high group"

[[record]]
compound = "COC(=O)N[C@H](C(=O)N[C@@H](C)CCC[C@@H](CO)N(CCCF)S(=O)(=O)c1ccc(N)cc1)C(c1ccccc1)c1ccccc1"
targetundertest = "acute HIV infection of T-lymphoid cells"
group = "high group"

[[record]]
compound = "COC(=O)N[C@H](C(=O)N[C@H](CCC[C@@H](CO)N(CCC(C)C)S(=O)(=O)c1ccc([C@H](C)O)cc1)C1CC1)C(c1ccc(F)cc1)c1ccc(F)cc1"
targetundertest = "acute HIV infection of T-lymphoid cells"
group = "middle group"

[[record]]
compound = "COC(=O)N[C@H](C(=O)N[C@H](CCC[C@@H](CO)N(CC(C)C)S(=O)(=O)c1ccc(CO)cc1)C(F)(F)F)C(c1ccccc1)c1ccccc1"
targetundertest = "acute HIV infection of T-lymphoid cells"
group = "middle group"

[[record]]
compound = "COC(=O)NC(C(=O)N[C@@H](C)CCC[C@@H](CO)N(C(C)C)S(=O)(=O)c1ccc(CO)cc1)C(c1cccc(F)c1)c1cccc(F)c1 (stereo partly drawn)"
targetundertest = "acute HIV infection of T-lymphoid cells"
group = "low group"

[[record]]
compound = "COC(=O)N[C@H](C(=O)N[C@H](CCC[C@@H](CO)N(CCC(C)C)S(=O)(=O)c1ccc2ncsc2c1)C1CC1)C(c1ccccc1)c1ccccc1"
targetundertest = "acute HIV infection of T-lymphoid cells"
group = "high group"


###

system: acute HIV infection of T-lymphoid cells; assay: Assay for inhibition of HIV replication (spread assay); assay type: cell-based, HIV-1; details: Human immunodeficiency virus 1, T-lymphoid; read-out: Spread - IC95
assayMetric: IC95 (nM)

[[record]]
compound = "COC(=O)N[C@H](C(=O)N[C@H](CCC[C@@H](CO)N(CCC(C)C)S(=O)(=O)c1ccc(N)cc1)C1CC1)C(c1ccc(F)cc1)c1ccc(F)cc1 [Example E7]"
valuereported = 39

[[record]]
compound = "CC(C)CCN([C@@H](CCCCNC(=O)[C@@H](N)C(c1ccccc1)c1ccccc1)C(C)O)S(=O)(=O)c1ccc(N)cc1 (mixture of isomers) [Example A1]"
valuereported = 140

[[record]]
compound = "COC(=O)N[C@H](C(=O)N[C@@H](C)CCC[C@@H](CO)N(CCCF)S(=O)(=O)c1ccc(CO)cc1)C(c1ccccc1)c1ccccc1 [Example G14]"
valuereported = 16

[[record]]
compound = "CC[C@@H](CCC[C@@H](CO)N(CCC(C)C)S(=O)(=O)c1ccc(N)c(Br)c1)NC(=O)[C@@H](NC(=O)OC)C(c1ccccc1)c1ccccc1 [Example D17]"
valuereported = 154

[[record]]
compound = "CCCN([C@H](CO)CCC[C@H](CC)NC(=O)[C@H](Cc1ccccc1Br)NC(=O)OC)S(=O)(=O)c1ccc(N)cc1 [Example F7]"
valuereported = 251

[[record]]
compound = "COC(=O)N[C@@H](Cc1ccccc1Cl)C(=O)N[C@@H](C)CCC[C@@H](CO)N(CC(C)C)S(=O)(=O)c1ccc(N)cc1 [Example D8]"
valuereported = 46

[[record]]
compound = "COC(=O)N[C@H](C(=O)N[C@H](C)CCC[C@@H](CO)N(CCC(C)C)S(=O)(=O)c1ccc(N)cc1)C(c1ccccc1)c1ccccc1 (single isomer, unassigned) [D1(S)]"
valuereported = 7

[[record]]
compound = "COC(=O)N[C@@H](Cc1ccccc1Br)C(=O)N[C@@H](C)CCC[C@@H](CO)N(C(C)C)S(=O)(=O)c1ccc(N)cc1 [Example G15]"
valuereported = 77

[[record]]
compound = "COC(=O)N[C@H](C(=O)N[C@@H](C)CCC[C@@H](CO)N(CCC(C)C)S(=O)(=O)c1ccc(CO)cc1)C(c1ccccc1)c1ccccc1 [Example J4]"
valuereported = 6

[[record]]
compound = "CCCN([C@H](CO)CCC[C@H](CC)NC(=O)[C@H](Cc1cccc2ccccc12)NC(=O)OC)S(=O)(=O)c1ccc(CO)cc1 [Example J41]"
valuereported = 54

[[record]]
compound = "COC(=O)N[C@H](C(=O)N[C@H](CCC[C@@H](CO)N(CCC(C)C)S(=O)(=O)c1ccc(CO)cc1)C(C)C)C(c1ccccc1)c1ccccc1 [Example J9]"
valuereported = 23

[[record]]
compound = "COC(=O)N[C@H](C(=O)N[C@H](CCC[C@@H](CO)N(CCC(C)C)S(=O)(=O)c1ccc(CO)c(F)c1)C1CC1)C(c1ccc(F)cc1)c1ccc(F)cc1 [Example E2]"
valuereported = 39


###

biological target: wild-type HIV-1 protease (Human immunodeficiency virus type 1 group M subtype B); assay: Assay for inhibition of microbial expressed HIV protease; format: biochemical; conditions: wild-type HIV-1 protease expressed in E. coli, peptide substrate, pH 5.5; read-out: Enzyme Inhibition - IC50
pIC50: −log10 of the molar value.
The following compounds are shown together with reported pIC50 values.
assayMetric: pIC50

[[record]]
compound = "CCN([C@H](CO)CCC[C@H](C)NC(=O)[C@@H](NC(=O)OC)C(c1ccccc1)c1ccccc1)S(=O)(=O)c1ccc(N)cc1 [Example G5]"
assaymetric = "pIC50"
valuereported = 9.42

[[record]]
compound = "COC(=O)N[C@H](C(=O)N[C@H](CCC[C@@H](CO)N(C)S(=O)(=O)c1ccc(CO)cc1)C1CC1)C(c1ccccc1)c1ccccc1 [Example I6]"
assaymetric = "pIC50"
valuereported = 8.99

[[record]]
compound = "CCC[C@@H](CCC[C@@H](CO)N(CCC(C)C)S(=O)(=O)c1ccc(N)cc1)NC(=O)[C@@H](NC(=O)OC)C(c1ccccc1)c1ccccc1 [Example D6]"
assaymetric = "pIC50"
valuereported = 9.97

[[record]]
compound = "CC[C@@H](CCC[C@@H](CO)N(C(C)C)S(=O)(=O)c1ccc(C(C)=O)cc1)NC(=O)[C@@H](NC(=O)OC)C(c1ccccc1)c1ccccc1 [Example K3]"
assaymetric = "pIC50"
valuereported = 9.03

[[record]]
compound = "CCCN([C@H](CO)CCC[C@H](CC)NC(=O)[C@H](Cc1ccccc1Br)NC(=O)OC)S(=O)(=O)c1ccc(N)cc1 [Example F7]"
assaymetric = "pIC50"
valuereported = 9.06

[[record]]
compound = "COC(=O)N[C@H](C(=O)N[C@H](CCC[C@@H](CO)N(CCC(C)C)S(=O)(=O)c1ccc2ncsc2c1)C1CC1)C(c1ccccc1)c1ccccc1 [Example G3]"
assaymetric = "pIC50"
valuereported = 9.80

